Values were extracted from ChEMBL document CHEMBL5113531.

MEASURED_ON: Sigma intracellular receptor 2 (Rattus norvegicus, UniProt Q5U3Y7)
Sequence (Q5U3Y7 whole entry): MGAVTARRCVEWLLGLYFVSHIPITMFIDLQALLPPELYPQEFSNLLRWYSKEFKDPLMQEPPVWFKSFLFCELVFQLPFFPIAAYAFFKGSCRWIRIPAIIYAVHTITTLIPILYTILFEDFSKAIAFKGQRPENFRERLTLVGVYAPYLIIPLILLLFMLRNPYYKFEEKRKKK
PROCEDURE_SUMMARY: Displacement of [3H]DTG from sigma 2 receptor in rat liver membranes measured after 120 mins by scintillation counting method
MEASURED_ENDPOINT: pKi
Reminder that pKi means the negative base-10 logarithm of the concentration expressed in mol/L.

Example cases with answers are listed next.
{"MOLECULE": "CCCCN1CCN(CCC(=O)Nc2nc3c(C)cccc3s2)CC1", "READOUT_VALUE": 5.92}
{"MOLECULE": "CCN1CCN(CCC(=O)Nc2nc3c(C)cccc3s2)CC1", "READOUT_VALUE": 5.92}
{"MOLECULE": "Cc1cccc2sc(NC(=O)CCN3CCN(C(C)C)CC3)nc12", "READOUT_VALUE": 5.74}
{"MOLECULE": "Cc1cccc2sc(NC(=O)CCN3CCN(C(C)(C)C)CC3)nc12", "READOUT_VALUE": 6.70}
{"MOLECULE": "Cc1cccc2sc(NC(=O)CCN3CCN(CC4CCCCC4)CC3)nc12", "READOUT_VALUE": 6.28}
{"MOLECULE": "Cc1cccc2sc(NC(=O)CCN3CCN(c4ccncc4)CC3)nc12", "READOUT_VALUE": 5.77}

Input: Look at this molecule and give its reported pKi. Cc1cccc2sc(NC(=O)CCN3CCN(C4CCN(C)CC4)CC3)nc12
Output: 5.44

Input: Look at this molecule and give its reported pKi. Cc1cccc2sc(NC(=O)CCN3CCN(CC4CCCO4)CC3)nc12 (racemic)
Output: 5.30

Input: Look at this molecule and give its reported pKi. CCOCCN1CCN(CCC(=O)Nc2nc3c(C)cccc3s2)CC1
Output: 5.80

Input: Look at this molecule and give its reported pKi. Cc1cccc2sc(NC(=O)CCN3CCN(Cc4ccc(C(C)(C)C)cc4)CC3)nc12
Output: 6.62

Input: Look at this molecule and give its reported pKi. CCCCCCN1CCN(CCC(=O)Nc2nc3c(C)cccc3s2)CC1
Output: 6.80

Input: Look at this molecule and give its reported pKi. Cc1cccc2sc(NC(=O)CCN3CCN(C4CCCCC4)CC3)nc12
Output: 6.63

Input: Look at this molecule and give its reported pKi. Cc1cccc2sc(NC(=O)CCN3CCN(CCN(C(C)C)C(C)C)CC3)nc12
Output: 6.92
